Target system: Cytochrome P450 2C19 (Homo sapiens)
Experiment description: Cytochrome P450 Family 2 Subfamily C Member 19 (CYP2C19) small molecule antagonists: luciferase reporter qHTS assay (AID 1671197); further: nearly all actives have a fitted effect of over 65% in size; further: potency means the concentration at half of the fitted maximal effect
Conditions: P450-Glo CYP2C19 enzyme, luciferin luminescence, 1 h; series mostly up to 52.9 µM
Records with an inconclusive call do not appear. The source made the active and inactive calls. The call rests on the fitted dose curve; in most records, active means well fitted inhibition curve with a large enough effect in the repeat runs; inconclusive means weak or mixed curves; inactive means no such curve, though single readings can be large or run the other way.

>  <Compound>
O=C1C(O)=C(O)C(=O)C(O)=C1O

>  <Potency>
inactive

$$$$
>  <Compound>
CCC(Cl)CCC(Cl)C(Cl)CC(Cl)C(Cl)C(Cl)CCl (centres undefined)

>  <Potency>
inactive

$$$$
>  <Compound>
Cc1cccc(C)c1OCC(=O)N[C@@H](Cc1ccccc1)[C@@H](O)C[C@H](Cc1ccccc1)NC(=O)[C@H](C(C)C)N1CCCNC1=O

>  <Potency>
21.9 µM (active)

$$$$
>  <Compound>
O=S(=O)(Oc1ccc(Cl)cc1)c1ccccc1

>  <Potency>
0.894 µM (active)

$$$$
>  <Compound>
Cn1c(=O)cc(Oc2ccc(F)cc2F)c2cnc(NCC(C)(C)O)nc21

>  <Potency>
71 µM (active)

$$$$
>  <Compound>
CCCCc1nc2cccnc2n1Cc1ccc(-c2ccccc2-c2nnn[nH]2)cc1

>  <Potency>
inactive

$$$$
>  <Compound>
CC1CCC(=O)C1=O (centres undefined)

>  <Potency>
inactive

$$$$
>  <Compound>
COc1ccc(S(=O)(=O)N2C(=O)[C@@](c3ccccc3OC)(N3C[C@H](O)C[C@H]3C(=O)N(C)C)c3cc(Cl)ccc32)c(OC)c1

>  <Potency>
31.7 µM (active)

$$$$
>  <Compound>
C=C1C(=C/C=C2\CCC[C@]3(C)[C@@H]([C@H](C)/C=C/[C@@H](O)C4CC4)CC[C@@H]23)C[C@@H](O)C[C@@H]1O

>  <Potency>
7.76 µM (active)

$$$$
